measured_on: Nam-ACR-16 (Necator americanus)
Sequence (A0A7M1S0Z8 22-498): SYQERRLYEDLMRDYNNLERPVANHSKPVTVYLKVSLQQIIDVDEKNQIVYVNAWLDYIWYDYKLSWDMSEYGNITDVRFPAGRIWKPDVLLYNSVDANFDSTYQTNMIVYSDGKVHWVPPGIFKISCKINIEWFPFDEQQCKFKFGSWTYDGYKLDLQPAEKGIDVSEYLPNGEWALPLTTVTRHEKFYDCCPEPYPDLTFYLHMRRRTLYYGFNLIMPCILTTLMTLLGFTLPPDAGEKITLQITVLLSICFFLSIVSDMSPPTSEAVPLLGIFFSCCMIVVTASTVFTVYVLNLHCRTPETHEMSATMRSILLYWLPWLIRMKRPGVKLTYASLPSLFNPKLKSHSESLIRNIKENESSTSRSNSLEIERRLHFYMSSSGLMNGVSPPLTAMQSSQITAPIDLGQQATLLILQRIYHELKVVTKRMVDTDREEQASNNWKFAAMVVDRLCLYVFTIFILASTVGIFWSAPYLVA
protocol: two-electrode voltage clamp in Xenopus oocytes, agonist concentration-response
Format: cell-based
Set-up: full-length homopentameric receptor, co-expressed with Hco-RIC-3 in Xenopus laevis oocytes
measurement_type: EC50
Please state the number and follow it with the unit.

Kindly state the measured EC50 obtained for CC(=O)OCC[N+](C)(C)C with Nam-ACR-16 (Necator americanus).
170 µM

###

measured_on: UniProt A0A7M1S0Z8
protocol: two-electrode voltage clamp in Xenopus oocytes, agonist concentration-response (weak partial agonist)
Type: cell-based
Set-up: full-length homopentameric receptor, co-expressed with Hco-RIC-3 in Xenopus laevis oocytes
measurement_type: EC50 (µM)
The reply should contain only the number, in µM.

What does the data say about its EC50? Entry: CN1CCC[C@H]1c1cccnc1
598
